Measured IC50, listed per entry for reference.
- TGT: wild-type EGFR kinase (Homo sapiens (Human), UniProt P00533)
- TEST SUMMARY: z'-lyte assay of inhibition activity on wild-type EGFR kinase
- Assay type: biochemical
- COND: 10 μM ATP, 0.8 ng/μL kinase, read-out: EGFR WT (IC50/μM)
Counter-ions that a name gives are not always drawn.

Known IC50 results, listed for orientation:
MOLECULE	IC50
C=CC(=O)Nc1cc(Nc2nc(-c3cnn(C)c3)c3cc[nH]c3n2)c(OC)cc1N1CC(N(C)C)C1 [Compound 11, Formate]	> 1 µM
C=CC(=O)Nc1cc(Nc2nc(-c3cccnc3)c3cc[nH]c3n2)c(OC)cc1N(C)CCN(C)C	0.347 µM
C=CC(=O)Nc1cc(Nc2nc(N3CCOCC3)c3cc[nH]c3n2)c(OC)cc1N(C)CCN(C)C	> 1 µM
C=CC(=O)Nc1cc(Nc2nc(OC3CN(S(C)(=O)=O)C3)c3cc[nH]c3n2)c(OC)cc1N(C)CCN(C)C	0.088 µM
C=CC(=O)Nc1cc(Nc2nc(-c3ccccc3)c3cc[nH]c3n2)c(OC)cc1N(C)CCN(C)C	0.315 µM
C=CC(=O)Nc1cc(Nc2nc(-c3cnn(C)c3)c3cc[nH]c3n2)c(OC)cc1N1CCC(N(C)C)CC1	> 1 µM

For record C=CC(=O)Nc1cc(Nc2nc(-c3cnn(C)c3)c3cc[nH]c3n2)c(OC)cc1N1CCN(C)CC1 the listed IC50 is > 1 µM

In plain terms, C=CC(=O)Nc1cc(Nc2nc(-c3cn(C)c4ccccc34)c3cc[nH]c3n2)c(OC)cc1N(C)CCN(C)C has a documented IC50 of 0.015 µM

For C=CC(=O)Nc1cc(Nc2nc(-c3cnn(C)c3)c3cc[nH]c3n2)c(OC)cc1N(C)CCN(C)C the molecule record lists IC50 as 0.393 µM

# IC50 of C=CC(=O)Nc1cc(Nc2nc(-c3cnc4c(ccn4C)c3)c3cc[nH]c3n2)c(OC)cc1N(C)CCN(C)C = 0.039 µM

---

- TGT: EGFR phosphorylation in A431 (EGFR wild-type) cells (Homo sapiens (Human), UniProt P00533)
- Sequence (P00533 25-1210): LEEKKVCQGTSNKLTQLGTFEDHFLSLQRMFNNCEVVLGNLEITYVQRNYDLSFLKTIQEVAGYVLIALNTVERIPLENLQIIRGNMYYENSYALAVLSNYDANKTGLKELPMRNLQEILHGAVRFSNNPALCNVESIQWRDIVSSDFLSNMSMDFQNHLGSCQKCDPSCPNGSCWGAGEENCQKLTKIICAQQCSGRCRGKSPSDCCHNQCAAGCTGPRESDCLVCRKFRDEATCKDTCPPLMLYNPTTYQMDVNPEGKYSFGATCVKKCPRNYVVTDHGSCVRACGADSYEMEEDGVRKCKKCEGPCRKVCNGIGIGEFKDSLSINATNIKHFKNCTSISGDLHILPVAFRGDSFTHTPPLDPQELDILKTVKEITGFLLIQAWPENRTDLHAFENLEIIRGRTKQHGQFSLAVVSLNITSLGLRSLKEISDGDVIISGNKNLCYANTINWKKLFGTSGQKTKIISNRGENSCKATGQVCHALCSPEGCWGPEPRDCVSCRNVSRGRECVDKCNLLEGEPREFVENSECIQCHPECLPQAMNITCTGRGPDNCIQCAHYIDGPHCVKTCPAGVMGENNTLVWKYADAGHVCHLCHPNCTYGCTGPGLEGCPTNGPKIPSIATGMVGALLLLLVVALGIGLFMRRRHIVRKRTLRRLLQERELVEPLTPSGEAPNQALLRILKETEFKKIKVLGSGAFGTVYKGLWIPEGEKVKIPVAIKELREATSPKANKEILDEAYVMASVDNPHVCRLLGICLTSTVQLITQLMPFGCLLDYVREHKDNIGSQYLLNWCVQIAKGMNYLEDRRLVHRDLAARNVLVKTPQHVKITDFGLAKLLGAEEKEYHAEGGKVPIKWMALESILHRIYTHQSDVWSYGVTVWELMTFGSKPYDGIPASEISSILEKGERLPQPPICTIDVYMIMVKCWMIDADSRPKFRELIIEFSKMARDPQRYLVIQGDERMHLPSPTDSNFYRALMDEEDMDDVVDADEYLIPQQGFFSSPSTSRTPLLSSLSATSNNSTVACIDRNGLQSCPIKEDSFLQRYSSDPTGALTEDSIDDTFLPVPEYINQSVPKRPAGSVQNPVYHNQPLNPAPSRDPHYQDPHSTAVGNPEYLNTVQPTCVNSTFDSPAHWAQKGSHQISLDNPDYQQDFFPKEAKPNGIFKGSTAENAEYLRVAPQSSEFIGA
- TEST SUMMARY: Inhibition of EGFR phosphorylation in A431 cells (ELISA)
- Format: cell-based
- COND: 1 h compound treatment, EGF stimulation, read-out: A431 cell (IC50/μM)
MEASURE NAME: IC50 (µM)
Please give a number only; it is taken to be in µM.

MOLECULE	IC50 [µM]
C=CC(=O)Nc1cc(Nc2nc(-c3cnn(C)c3)c3cc[nH]c3n2)c(OC)cc1N(C)CCN(C)C [Compound 1]	3.67
C=CC(=O)Nc1cc(Nc2nc(-c3cnn(C)c3)c3cc[nH]c3n2)c(OC)cc1OCCN(C)C [Compound 10]	8.98

C=CC(=O)Nc1cc(Nc2nc(-c3cccnc3)c3cc[nH]c3n2)c(OC)cc1N(C)CCN(C)C [Compound 6] yielded IC50 of 1.67

---

- TGT: EGFR phosphorylation in H1975 (EGFR T790M mutant) cells (Homo sapiens (Human), UniProt P00533, L858R/T790M)
- Sequence (P00533 25-1210 T790M/L858R): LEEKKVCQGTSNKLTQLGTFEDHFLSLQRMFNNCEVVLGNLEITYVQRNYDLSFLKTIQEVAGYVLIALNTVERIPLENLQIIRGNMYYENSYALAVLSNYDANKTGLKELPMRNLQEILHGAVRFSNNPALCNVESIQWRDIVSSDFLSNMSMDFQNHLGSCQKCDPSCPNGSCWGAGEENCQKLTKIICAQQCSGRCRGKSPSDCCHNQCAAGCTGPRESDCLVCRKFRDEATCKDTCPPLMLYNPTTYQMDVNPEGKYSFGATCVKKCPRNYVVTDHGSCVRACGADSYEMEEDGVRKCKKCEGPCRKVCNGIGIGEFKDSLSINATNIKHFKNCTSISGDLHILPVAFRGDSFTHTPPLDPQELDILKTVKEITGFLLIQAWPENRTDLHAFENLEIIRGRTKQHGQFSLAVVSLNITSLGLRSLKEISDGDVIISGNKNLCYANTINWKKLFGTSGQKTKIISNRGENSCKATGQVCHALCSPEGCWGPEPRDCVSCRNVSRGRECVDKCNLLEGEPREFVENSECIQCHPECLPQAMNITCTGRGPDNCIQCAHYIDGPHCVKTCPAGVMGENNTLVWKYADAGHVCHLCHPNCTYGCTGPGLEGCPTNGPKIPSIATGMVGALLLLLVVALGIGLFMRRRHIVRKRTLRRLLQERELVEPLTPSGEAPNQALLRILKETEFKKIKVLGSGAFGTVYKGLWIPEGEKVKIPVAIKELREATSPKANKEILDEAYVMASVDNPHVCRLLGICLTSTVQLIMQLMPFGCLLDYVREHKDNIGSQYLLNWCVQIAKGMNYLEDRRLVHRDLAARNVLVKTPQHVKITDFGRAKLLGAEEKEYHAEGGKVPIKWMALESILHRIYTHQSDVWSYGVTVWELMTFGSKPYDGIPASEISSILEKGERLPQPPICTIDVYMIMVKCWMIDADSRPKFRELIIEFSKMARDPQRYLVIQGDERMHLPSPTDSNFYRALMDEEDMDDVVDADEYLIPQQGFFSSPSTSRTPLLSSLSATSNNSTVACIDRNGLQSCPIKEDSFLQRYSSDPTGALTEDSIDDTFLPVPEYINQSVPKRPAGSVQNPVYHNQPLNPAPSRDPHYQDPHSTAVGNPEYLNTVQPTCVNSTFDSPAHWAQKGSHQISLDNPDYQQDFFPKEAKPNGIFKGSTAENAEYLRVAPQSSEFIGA
- TEST SUMMARY: Inhibition of EGFR phosphorylation in H1975 cells (ELISA)
- Type: cell-based
- COND: EGFR phosphorylation, ELISA, 1 h compound treatment; read-out: H1975 cell (IC50/μM)
Response field class: enum, chosen by comparing IC50 against low value (below 0.03 µM), medium value (0.03 µM to below 0.2 µM), high value (0.2 µM or more)

Examples with answers:
INPUT SMILES	CLASSIFICATION
C=CC(=O)Nc1cc(Nc2nc(-c3cnc4c(ccn4C)c3)c3cc[nH]c3n2)c(OC)cc1N(C)CCN(C)C	low value
C=CC(=O)Nc1cc(Nc2nc(OC3CN(S(C)(=O)=O)C3)c3cc[nH]c3n2)c(OC)cc1N(C)CCN(C)C	medium value
C=CC(=O)Nc1cc(Nc2nc(-c3cnn(C)c3)c3cc[nH]c3n2)c(OC)cc1N1CCC(N(C)C)CC1	high value

Pending compound:
[ask] Each compound maps to one class by IC50. Which class for C=CC(=O)Nc1cc(Nc2nc(N3CCOCC3)c3cc[nH]c3n2)c(OC)cc1N(C)CCN(C)C ?
[reply] high value

---

- Test system: H1975 cells
- TEST SUMMARY: Cell inhibitory activity by MTT assay, H1975 cells
- Type: cell-based
- COND: cell growth, MTT assay, 72 hours
MEASURE NAME: IC50
Hi, when you answer, please include the unit after the number. Thanks!

Reported IC50 for C=CC(=O)Nc1cc(Nc2nc(OC3CN(S(C)(=O)=O)C3)c3cc[nH]c3n2)c(OC)cc1N(C)CCN(C)C [Compound 3] was 0.029 µM

---

Here the recorded IC50 is given for each entry.
- Test system: A431 cells
- TEST SUMMARY: Cell inhibitory activity by MTT assay, A431 cells
- Type: cell-based
- COND: Homo sapiens, A-431, cell growth, 72 hours
State just the number; it will be interpreted in µM.

Please review the entries below; each comes with its answer.
INPUT SMILES	TGT	MEASUREMENT UNITS	RECORDED RESULT
C=CC(=O)Nc1cc(Nc2nc(-c3cnn(C)c3)c3cc[nH]c3n2)c(OC)cc1N1CCC(N(C)C)CC1	A431 cells	µM	4.34
C=CC(=O)Nc1cc(Nc2nc(-c3cnn(C)c3)c3c(Cl)c[nH]c3n2)c(OC)cc1N1CCC(N(C)C)CC1	A431 cells	µM	3.04
C=CC(=O)Nc1cc(Nc2nc(-c3cnc4c(ccn4C)c3)c3cc[nH]c3n2)c(OC)cc1N(C)CCN(C)C	A431 cells	µM	1.12
C=CC(=O)Nc1cc(Nc2nc(-c3ccccc3)c3cc[nH]c3n2)c(OC)cc1N(C)CCN(C)C	A431 cells	µM	1.69
C=CC(=O)Nc1cc(Nc2nc(N3CCOCC3)c3cc[nH]c3n2)c(OC)cc1N(C)CCN(C)C	A431 cells	µM	4.01

Looking up C=CC(=O)Nc1cc(Nc2nc(-c3cnn(C)c3)c3cc[nH]c3n2)c(OC)cc1N(C)CCN(C)C , I found its IC50 recorded as 1.56

For this compound ( C=CC(=O)Nc1cc(Nc2nc(-c3cnn(C)c3)c3cc[nH]c3n2)c(OC)cc1OCCN(C)C ), measured IC50 is 3.8

// field: IC50; key: C=CC(=O)Nc1cc(Nc2nc(-c3cn(C)c4ccccc34)c3cc[nH]c3n2)c(OC)cc1N(C)CCN(C)C ; value = 0.308

Lookup result for C=CC(=O)Nc1cc(Nc2nc(-c3cccnc3)c3cc[nH]c3n2)c(OC)cc1N(C)CCN(C)C ; measured IC50: 1.8

---

Each record here notes measured IC50.
- TGT: EGFR phosphorylation in H1975 (EGFR T790M mutant) cells (Homo sapiens (Human), UniProt P00533, L858R/T790M)
- TEST SUMMARY: Inhibition of EGFR phosphorylation in H1975 cells (ELISA)
- Format: cell-based
- COND: EGFR phosphorylation, ELISA, 1 h compound treatment; read-out: H1975 cell (IC50/μM)
Give the value in µM but do not write µM after it.

INPUT SMILES	IC50 (µM)
C=CC(=O)Nc1cc(Nc2nc(-c3ccccc3)c3cc[nH]c3n2)c(OC)cc1N(C)CCN(C)C	0.204
C=CC(=O)Nc1cc(Nc2nc(-c3cnn(C)c3)c3cc[nH]c3n2)c(OC)cc1OCCN(C)C	0.166
C=CC(=O)Nc1cc(Nc2nc(-c3cccnc3)c3cc[nH]c3n2)c(OC)cc1N(C)CCN(C)C	0.096
C=CC(=O)Nc1cc(Nc2nc(-c3cnn(C)c3)c3cc[nH]c3n2)c(OC)cc1N(C)CCN(C)C	0.112

The recorded IC50 for entry C=CC(=O)Nc1cc(Nc2nc(-c3cn(C)c4ccccc34)c3cc[nH]c3n2)c(OC)cc1N(C)CCN(C)C equals 0.016

Values from patent US9890168B2
